Where these numbers come from: PubChem BioAssay AID2060622

Form field: viability, T/C (one value per entry).
Tested on: 242566-281-R-J2-PDC complex spheroid viability;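 further: spheroids exposed to compounds for 7 days before readout; 100% = DMSO vehicle control wells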
Test: Anticancer human tumor 242566-281-R-J2-PDC patient-derived pancreatic carcinoma cell line growth inhibition [CLK]
Settings: second compound 0.316 µM; first compound 1 µM; hits give low values
Write the number in % without appending the unit.

Before answering, review these 2 worked examples.
Molecule	Measure unit	viability, T/C
Nc1ccn(C2OC(CO)C(O)C2(F)F)c(=O)n1 (stereo not drawn) + CN1CCN(c2cc(C(=O)Nc3cc4cc(-c5cnn(C)c5)ccc4cn3)ccn2)CC1	%	4.57
CC1COCCN1c1cc(C2(S(C)(=N)=O)CC2)nc(-c2ccnc3[nH]ccc23)n1 (stereo not drawn) + CNC(=O)c1ccc(Nc2nc(OC3CCCC3)c3c(-c4ccc5nc(C)oc5c4)c[nH]c3n2)c(OC)c1	%	70.8

Continue with the molecule presented below.
Query: Returns the measured viability, T/C for the input molecule. Input: C=C(F)C(=O)N1CCN(c2nc(OCC3CCCN3C)nc3c2CCN(c2cccc4cccc(Cl)c24)C3)CC1CC#N (stereo not drawn) + CN1CCN(c2cc(C(=O)Nc3cc4cc(-c5cnn(C)c5)ccc4cn3)ccn2)CC1
Reply: 41.3
